Test: Quantitative targeted LC-MS/MS pharmacokinetics of AR ingredients in rat plasma after oral MBST
Format: in vivo
Conditions: male, Sprague-Dawley, rat, in vivo, po, 1 g/kg
Reported Cmax values for a set of compounds

# compound, readingUnit, Cmax
records = [
    ("c1cc2c(cc1[C@H]1OC[C@H]3[C@@H]1CO[C@@H]3c1ccc3c(c1)OCO3)OCO2", "ng/mL", 5.63),
    ("c1cc2c(cc1[C@H]1OC[C@H]3[C@@H]1CO[C@H]3c1ccc3c(c1)OCO3)OCO2 [Asarinin, (−)-Asarinin]", "ng/mL", 8.42),
]

====

Experiment: Quantitative targeted LC-MS/MS pharmacokinetics of AR ingredients in rat plasma after oral MBST
Format: in vivo
Details: male, Sprague-Dawley, rat, in vivo, po, 2 g/kg
Reported AUC(0-t) values for a set of compounds
reportedEndpoint: AUC(0-t) (ng·h/mL)

# compound, reportedEndpoint, assayValue
rows = [
    ("c1cc2c(cc1[C@H]1OC[C@H]3[C@@H]1CO[C@@H]3c1ccc3c(c1)OCO3)OCO2", "AUC(0-t)", 28.7),
    ("c1cc2c(cc1[C@H]1OC[C@H]3[C@@H]1CO[C@H]3c1ccc3c(c1)OCO3)OCO2 [Asarinin, (−)-Asarinin]", "AUC(0-t)", 38.6),
]

====

Test: Quantitative targeted LC-MS/MS pharmacokinetics of AR ingredients in rat plasma after oral MBST
Type: in vivo
Conditions: male, Sprague-Dawley; rat plasma, oral MBST 1 g/kg; read-out: kel (converted)

# compound, k el (s⁻¹)
measured = [
    ("C/C=C/C=C\\CC/C=C/C=C/C(=O)NCC(C)C [Amide A]", 0.000211),
]

====

Molecular target: human TRPV1 (Homo sapiens, UniProt Q8NER1)
Construct: Each full-length human TRPA1, TRPV1, TRPV4, and TRPM8 coding regions were introduced into a pcDNA4/TO vector; expressed in transfected cells; host or cells: T-REx-293 cells (tetracycline-induced, pcDNA4/TO vector)
Sequence (Q8NER1 whole entry): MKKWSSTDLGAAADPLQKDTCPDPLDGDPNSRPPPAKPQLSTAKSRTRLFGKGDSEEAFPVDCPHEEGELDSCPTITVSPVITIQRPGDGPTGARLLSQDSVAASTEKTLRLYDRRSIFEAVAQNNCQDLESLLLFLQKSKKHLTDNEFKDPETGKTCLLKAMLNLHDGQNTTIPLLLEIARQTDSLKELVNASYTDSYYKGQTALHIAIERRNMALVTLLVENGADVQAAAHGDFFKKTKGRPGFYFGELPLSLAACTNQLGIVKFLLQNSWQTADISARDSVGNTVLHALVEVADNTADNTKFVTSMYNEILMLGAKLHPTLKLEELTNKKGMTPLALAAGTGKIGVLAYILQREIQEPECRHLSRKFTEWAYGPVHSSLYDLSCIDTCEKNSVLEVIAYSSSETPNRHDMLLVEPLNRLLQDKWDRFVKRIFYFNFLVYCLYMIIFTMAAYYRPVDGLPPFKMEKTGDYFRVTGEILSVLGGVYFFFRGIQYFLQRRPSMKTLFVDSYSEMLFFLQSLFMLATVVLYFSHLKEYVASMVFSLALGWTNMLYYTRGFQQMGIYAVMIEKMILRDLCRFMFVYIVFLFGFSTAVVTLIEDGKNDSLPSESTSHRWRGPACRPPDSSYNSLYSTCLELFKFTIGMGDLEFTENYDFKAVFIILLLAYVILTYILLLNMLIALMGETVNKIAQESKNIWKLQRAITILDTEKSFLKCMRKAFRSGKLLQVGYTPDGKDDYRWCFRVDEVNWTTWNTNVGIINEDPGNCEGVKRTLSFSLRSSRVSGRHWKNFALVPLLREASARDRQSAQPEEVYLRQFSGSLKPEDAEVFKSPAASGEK
Experiment: Ca2+ influx assay in TRPV1-expressing T-REx-293 cells
Format: cell-based
Conditions: 10 µmol/L test compound; relative to 2 µmol/L capsaicin
reportedEndpoint: % of Activation Compared to Positive Control against Each Subfamily of TRP Channel TRPV1 (%)

# molecule, testedOn, assayValue
records = [
    ("CC(C(O)c1ccccc1)[N+](C)(C)[O-] (stereo not drawn) [Methylephedrine N-oxide]", "human TRPV1 (Homo sapiens, UniProt Q8NER1)", 0.3),
    ("CCN1C[C@]2(COC)[C@H](O)C[C@H](OC)[C@@]34[C@@H]5C[C@@]6(O)[C@H](OC(=O)c7ccccc7)[C@@H]5[C@@](O)([C@@H]([C@H](OC)[C@H]23)[C@@H]14)[C@@H](O)[C@@H]6OC", "human TRPV1 (Homo sapiens, UniProt Q8NER1)", "−0.2"),
    ("O=c1cc(-c2ccc(O)cc2)oc2c([C@@H]3O[C@H](CO)[C@@H](O)[C@H](O)[C@H]3O)c(O)c([C@@H]3O[C@H](CO)[C@@H](O)[C@H](O)[C@H]3O)c(O)c12", "human TRPV1 (Homo sapiens, UniProt Q8NER1)", 1.8),
    ("O.Oc1cc(O)c2c(c1)O[C@H](c1ccc(O)c(O)c1)[C@@H](O)C2", "human TRPV1 (Homo sapiens, UniProt Q8NER1)", "−0.3"),
    ("C=C1[C@H]2C[C@@H]3[C@H]4N5C[C@@]6(C)[C@H]7[C@@H]5C[C@]3([C@@H]1O)[C@@](O)(C2)[C@]74C[C@@H](OC(=O)c1ccccc1)[C@@H]6O", "human TRPV1 (Homo sapiens, UniProt Q8NER1)", "−0.2"),
    ("CCC(=O)c1cc2c(cc1OC)OCO2", "human TRPV1 (Homo sapiens, UniProt Q8NER1)", 0.1),
]
